Molecular target: NEK7 (Homo sapiens (Human), UniProt Q8TDX7+Q96SW2)
Sequence (Q8TDX7 whole entry): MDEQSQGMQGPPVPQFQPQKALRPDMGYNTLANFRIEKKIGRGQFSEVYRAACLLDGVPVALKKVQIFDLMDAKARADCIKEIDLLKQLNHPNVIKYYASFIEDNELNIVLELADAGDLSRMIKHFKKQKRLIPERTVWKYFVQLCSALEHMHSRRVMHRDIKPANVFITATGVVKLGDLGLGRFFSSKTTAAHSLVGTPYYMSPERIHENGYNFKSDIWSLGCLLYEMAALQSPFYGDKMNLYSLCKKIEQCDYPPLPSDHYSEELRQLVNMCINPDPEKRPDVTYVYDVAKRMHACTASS
Sequence (Q96SW2 whole entry): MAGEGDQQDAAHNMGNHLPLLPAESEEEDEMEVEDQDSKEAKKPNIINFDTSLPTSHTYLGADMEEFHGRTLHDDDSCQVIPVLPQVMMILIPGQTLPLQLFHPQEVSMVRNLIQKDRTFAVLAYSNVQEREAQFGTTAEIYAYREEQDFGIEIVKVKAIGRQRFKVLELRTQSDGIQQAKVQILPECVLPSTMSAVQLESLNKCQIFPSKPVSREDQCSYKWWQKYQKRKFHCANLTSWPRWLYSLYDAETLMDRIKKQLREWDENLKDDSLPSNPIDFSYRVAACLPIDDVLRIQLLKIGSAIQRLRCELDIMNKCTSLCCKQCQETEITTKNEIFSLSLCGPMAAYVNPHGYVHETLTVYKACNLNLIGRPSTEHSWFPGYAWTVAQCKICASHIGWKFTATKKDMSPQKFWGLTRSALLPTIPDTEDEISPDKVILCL
Sequence (Q16531 2-1140 partner): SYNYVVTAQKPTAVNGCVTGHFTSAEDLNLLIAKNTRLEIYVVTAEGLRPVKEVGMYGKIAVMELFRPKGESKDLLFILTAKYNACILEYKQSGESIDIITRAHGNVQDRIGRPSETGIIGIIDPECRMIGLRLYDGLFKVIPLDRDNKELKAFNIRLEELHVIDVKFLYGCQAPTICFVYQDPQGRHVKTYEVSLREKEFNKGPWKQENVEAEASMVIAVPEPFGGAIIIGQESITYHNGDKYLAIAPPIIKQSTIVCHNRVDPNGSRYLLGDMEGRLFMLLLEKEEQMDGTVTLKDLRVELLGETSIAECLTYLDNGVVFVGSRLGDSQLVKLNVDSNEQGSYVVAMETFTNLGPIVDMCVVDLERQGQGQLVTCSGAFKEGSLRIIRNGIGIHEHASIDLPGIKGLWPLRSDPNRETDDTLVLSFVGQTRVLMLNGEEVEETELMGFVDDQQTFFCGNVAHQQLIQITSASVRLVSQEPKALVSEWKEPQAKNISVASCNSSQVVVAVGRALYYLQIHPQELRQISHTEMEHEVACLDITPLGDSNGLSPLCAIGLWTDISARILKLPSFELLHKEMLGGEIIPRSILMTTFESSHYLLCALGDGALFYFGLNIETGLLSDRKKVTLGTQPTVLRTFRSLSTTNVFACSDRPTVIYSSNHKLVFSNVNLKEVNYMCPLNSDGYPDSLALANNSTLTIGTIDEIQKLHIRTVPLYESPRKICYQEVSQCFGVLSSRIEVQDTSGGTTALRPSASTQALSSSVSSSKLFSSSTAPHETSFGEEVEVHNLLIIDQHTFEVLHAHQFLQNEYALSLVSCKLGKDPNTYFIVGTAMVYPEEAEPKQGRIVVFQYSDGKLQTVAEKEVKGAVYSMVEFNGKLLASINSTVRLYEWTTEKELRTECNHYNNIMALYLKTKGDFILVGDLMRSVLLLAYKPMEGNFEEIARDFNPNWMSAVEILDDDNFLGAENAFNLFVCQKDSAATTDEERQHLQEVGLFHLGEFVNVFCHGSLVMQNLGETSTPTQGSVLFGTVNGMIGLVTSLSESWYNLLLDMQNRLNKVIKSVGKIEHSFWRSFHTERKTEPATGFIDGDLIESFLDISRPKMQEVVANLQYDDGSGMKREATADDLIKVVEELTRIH
Assay: NEK7 NanoBiT degradation assay in Cal51 NEK7 NanoBiT cell line
Assay type: cell-based
Conditions: Cal51 NEK7 NanoBiT cells, 24 hours; read-out: NEK7 NanoBiT DC50
Measured Endpoint: DC50 (nM)

{"Molecule": "Cc1ncc(C(C)(C)C(=O)NCc2cc(F)c(C3CCC(=O)NC3=O)c(Cl)c2)o1 (stereo not shown)", "Subject Of Test": "NEK7 (Homo sapiens (Human), UniProt Q8TDX7+Q96SW2)", "Unit Tag": "nM", "DC50": 179}

[a] CC(F)(F)c1ccc(C(C)(C)C(=O)NCc2cc(F)c(C3CCC(=O)NC3=O)c(Cl)c2)nn1 (stereo not shown)
[b] Cc1cnc(C(C)(CO)C(=O)NCc2cc(Cl)c(C3CCC(=O)NC3=O)c(Cl)c2)nc1 (stereo not shown)
Q) Consider a and b . Which of these has its DC50 at a higher number? I would appreciate it if you answered with the label of your choice.
A) a
(a: 155 nM, b: 15 nM)

* * *

Target: NEK7 (Homo sapiens (Human), UniProt Q8TDX7+Q96SW2)
Test: NEK7 NanoBiT degradation assay in Cal51 NEK7 NanoBiT cell line
Type: cell-based
Settings: NEK7 degradation, Cal51 NEK7 NanoBiT cells, 24 hours; read-out: NanoBiT DC50
Measured Endpoint: DC50

{"Compound": "Cn1c(F)cc(C(C)(C)C(=O)NCc2cc(Cl)c(C3CCC(=O)NC3=O)c(Cl)c2)cc1=O (stereo not drawn) [Compound 172]", "Subject Of Test": "NEK7 (Homo sapiens (Human), UniProt Q8TDX7+Q96SW2)", "DC50": "≤ 0.1 µM"}
{"Compound": "CC(C)(C(=O)NCc1cc(Cl)c(C2CCC(=O)NC2=O)c(Cl)c1)c1ccc(OC(F)(F)F)nn1 (stereo not drawn) [Compound 223]", "Subject Of Test": "NEK7 (Homo sapiens (Human), UniProt Q8TDX7+Q96SW2)", "DC50": "≤ 0.1 µM"}
{"Compound": "CC(C)(C(=O)NCc1cc(Cl)c(C2CCC(=O)NC2=O)c(Cl)c1)c1ccc2[nH]ccc2c1 (stereo not drawn) [Compound 91]", "Subject Of Test": "NEK7 (Homo sapiens (Human), UniProt Q8TDX7+Q96SW2)", "DC50": "≤ 0.1 µM"}
{"Compound": "CC(C)(C(=O)NCc1ccc(C2CCC(=O)NC2=O)c(Br)c1)c1ccc(F)cc1 (stereo not drawn) [Compound 64]", "Subject Of Test": "NEK7 (Homo sapiens (Human), UniProt Q8TDX7+Q96SW2)", "DC50": "≤ 0.1 µM"}
{"Compound": "CC(C)(C(=O)NCc1cc(Cl)c(C2CCC(=O)NC2=O)c(Cl)c1)c1cc2ncccc2cn1 (stereo not drawn) [Compound 2]", "Subject Of Test": "NEK7 (Homo sapiens (Human), UniProt Q8TDX7+Q96SW2)", "DC50": "≤ 0.1 µM"}
{"Compound": "CC(C)(C(=O)NCc1cc(Cl)c(C2CCC(=O)NC2=O)c(Cl)c1)c1ccc2ncoc2n1 (stereo not drawn) [Compound 184]", "Subject Of Test": "NEK7 (Homo sapiens (Human), UniProt Q8TDX7+Q96SW2)", "DC50": "≤ 0.1 µM"}
{"Compound": "COCc1cnc(C(C)(C)C(=O)NCc2cc(Cl)c(C3CCC(=O)NC3=O)c(Cl)c2)nc1 (stereo not drawn) [Compound 183]", "Subject Of Test": "NEK7 (Homo sapiens (Human), UniProt Q8TDX7+Q96SW2)", "DC50": "≤ 0.1 µM"}
{"Compound": "CC(C)(C(=O)NCc1cc(Cl)c(C2CCC(=O)NC2=O)c(Cl)c1)c1ccsc1 (stereo not drawn) [Compound 126]", "Subject Of Test": "NEK7 (Homo sapiens (Human), UniProt Q8TDX7+Q96SW2)", "DC50": "≤ 0.1 µM"}
{"Compound": "CC(C)(C(=O)NCc1cc(Cl)c(C2CCC(=O)NC2=O)c(Cl)c1)C1CCCO1 (stereo not drawn) [Compound 265]", "Subject Of Test": "NEK7 (Homo sapiens (Human), UniProt Q8TDX7+Q96SW2)", "DC50": "0.1 to 1 µM"}
{"Compound": "CC(C)(C(=O)NCc1cc(Cl)c(C2CCC(=O)NC2=O)c(Cl)c1)c1cnc(C#N)nc1 (stereo not drawn) [Compound 13]", "Subject Of Test": "NEK7 (Homo sapiens (Human), UniProt Q8TDX7+Q96SW2)", "DC50": "≤ 0.1 µM"}

Q) Consider the compound shown here: CC(C)(C(=O)NCc1cc(F)c(C2CCC(=O)NC2=O)c(Cl)c1)c1cnc(OC(F)(F)F)cn1 (stereo not drawn) [Compound 264] What is its recorded DC50?
A) ≤ 0.1 µM
